Target: MAP kinase-activated protein kinase 5 (Homo sapiens, UniProt Q8IW41)
Sequence (Q8IW41 whole entry): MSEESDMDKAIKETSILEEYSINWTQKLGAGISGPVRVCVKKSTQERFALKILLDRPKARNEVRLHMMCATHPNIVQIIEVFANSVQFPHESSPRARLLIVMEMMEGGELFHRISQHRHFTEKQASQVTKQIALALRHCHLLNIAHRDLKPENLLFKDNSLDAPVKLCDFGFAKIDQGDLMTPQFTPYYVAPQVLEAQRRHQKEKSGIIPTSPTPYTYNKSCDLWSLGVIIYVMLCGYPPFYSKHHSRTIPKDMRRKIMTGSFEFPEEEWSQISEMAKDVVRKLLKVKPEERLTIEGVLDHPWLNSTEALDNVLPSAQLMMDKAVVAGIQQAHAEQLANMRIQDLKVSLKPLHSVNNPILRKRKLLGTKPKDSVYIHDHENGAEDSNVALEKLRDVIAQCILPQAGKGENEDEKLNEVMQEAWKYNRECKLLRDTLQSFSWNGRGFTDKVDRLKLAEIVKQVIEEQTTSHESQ
Experiment: Inhibition of PRAK (unknown origin)

>  <molecule>
O=C(O[C@@H]1Cc2c(O)cc(O)cc2O[C@@H]1c1cc(O)c(O)c(O)c1)c1cc(O)c(O)c(O)c1 [EPIGALOCATECHIN GALLATE]

>  <target_of_assay>
MAP kinase-activated protein kinase 5 (Homo sapiens, UniProt Q8IW41)

>  <display_unit>
µM

>  <IC50>
1

$$$$

* * *

Target: Dual specificity protein kinase CLK2 (Homo sapiens)
Sequence (P49760 whole entry): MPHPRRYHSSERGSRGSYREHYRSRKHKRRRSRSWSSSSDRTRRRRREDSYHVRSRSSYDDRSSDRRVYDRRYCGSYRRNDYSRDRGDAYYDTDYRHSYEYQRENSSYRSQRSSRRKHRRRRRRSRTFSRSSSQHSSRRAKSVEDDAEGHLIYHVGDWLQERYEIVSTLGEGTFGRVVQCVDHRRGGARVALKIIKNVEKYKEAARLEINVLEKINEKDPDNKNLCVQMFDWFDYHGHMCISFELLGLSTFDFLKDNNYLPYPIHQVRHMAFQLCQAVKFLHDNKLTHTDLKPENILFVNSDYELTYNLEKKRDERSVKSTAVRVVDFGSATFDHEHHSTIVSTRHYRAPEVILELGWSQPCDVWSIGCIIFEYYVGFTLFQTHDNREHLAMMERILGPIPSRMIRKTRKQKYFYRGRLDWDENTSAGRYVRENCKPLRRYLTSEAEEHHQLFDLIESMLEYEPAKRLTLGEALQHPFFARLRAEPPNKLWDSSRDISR
pIC50: −log10 of the molar value.

>  <sample_smiles>
CN1C(=O)/C(=C\c2ccc3c(c2)OCO3)N=C1N

>  <pIC50>
6.04

$$$$
